Test system: SF-539
Assay: NCI tumour cell line growth inhibition, 48 h
Active and inactive are the calls of the source. Cut-off read from the data, not from the text of the source: active = GI50 up to about 1.1 µM and inactive = higher.
Measure: GI50

Before answering, review these 2 worked examples.
{"Compound": "O=C(CSCC(=O)N/N=C/c1cccs1)N/N=C/c1cccs1", "GI50": "52.8 µM (inactive)"}
{"Compound": "CCOc1cc2c(NCCCN(CCO)CCO)ncnc2c(OCC)c1OCC", "GI50": "> 100 µM (inactive)"}

List GI50 for every entry below, keeping the order given.
1. CC(=O)NC(C)(C)C1CC=C(C)CC1 (stereo unspecified)
2. COC(=O)C1=C(C(=O)OC)C(Cc2ccccc2)(OO)OC1=O (stereo unspecified)
3. Nc1nc(=S)[nH]c2nc3c(c(-c4ccccc4)c12)CCCC3
4. O=c1c2cc(I)ccc2nc(-c2cccs2)n1Nc1ccccc1

Solution:
1. > 100 µM (inactive)
2. 3.15 µM (inactive)
3. 71.6 µM (inactive)
4. 33.5 µM (inactive)

The measured values listed here are drawn from ChEMBL document CHEMBL1201862.
